Tested on: WHIM2 (cells of a triple-negative basal-like breast cancer xenograft)
run-description: cell viability (% of vehicle); higher = less cytotoxic
measurement-setup: 10 µM; 72 h
observation-type: cell viability
Lab note: write the figure by itself, no unit.

Illustrative cases are given below, each with its answer.
>  <compound>
C1N2CN3CN1CN(C2)C3 [Methenamine]

>  <observation-type>
cell viability

>  <reported>
91.8

$$$$
>  <compound>
CCN(CC)CCNC(=O)c1cc(Cl)c(N)cc1OC [Metoclopramide]

>  <observation-type>
cell viability

>  <reported>
88.4

$$$$
>  <compound>
C=CC(=O)N1CCCC(n2nc(-c3ccc(Oc4ccccc4)cc3)c3c(N)ncnc32)C1 (stereo not drawn)

>  <observation-type>
cell viability

>  <reported>
70.4

$$$$
>  <compound>
CN1CCN(CCCN2c3ccccc3Sc3ccc(Cl)cc32)CC1 [Prochlorperazine]

>  <observation-type>
cell viability

>  <reported>
74.7

$$$$
>  <compound>
NS(=O)(=O)c1cc(C(=O)O)c(NCc2ccco2)cc1Cl [Furosemide]

>  <observation-type>
cell viability

>  <reported>
98.3

$$$$
>  <compound>
O=c1c(O)c(-c2ccc(O)c(O)c2)oc2cc(O)cc(O)c12 [Quercetin]

>  <observation-type>
cell viability

>  <reported>
107

$$$$

Q: Form field - read-out: cell viability; system: WHIM2; submitted item: CCCCC(C)(O)C/C=C/[C@H]1[C@H](O)CC(=O)[C@@H]1CCCCCCC(=O)OC (mixture of isomers) [Misoprostol];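 also: PDX cells carrying CMV promoter-driven luciferase, viability read as total photon flux per second by IVIS imaging following D-luciferin, vehicle control 0.1% DMSO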
Result: 93.1

Q: Kindly state the measured cell viability obtained for CCn1cc(C(=O)O)c(=O)c2cc(F)c(N3CCN(C)CC3)cc21.CS(=O)(=O)O [Pefloxacin Mesylate] with WHIM2.
Result: 80.5
